# Assay details: in vivo
# Experimental setup: male, CD-1, mouse, in vivo, po, 100 mg/kg
Metric: Cmax (ng/mL)
Lab book: enter the figure in ng/mL, no units written.

What value of Cmax has been reported for the following compound? CC(C)c1cnn2c(NCc3ccccc3-n3cccn3)nc(OC3CCCNC3)nc12 (stereo not shown) [LDC4297] 1300

###

# Assay details: in vivo
# Experimental setup: male, CD-1, mouse, in vivo, po, 100 mg/kg
Metric: half-life (h)
Lab book: enter the figure in h, no units written.

What value of half-life has been reported for the following compound? CC(C)c1cnn2c(NCc3ccccc3-n3cccn3)nc(OC3CCCNC3)nc12 (stereo not shown) 1.6

Values from paper PMC10892818
